biological target: vitamin D receptor (Sus scrofa, UniProt A3RGC1); construct: Receptor-containing protein extract is incubated in a test tube with ^3H-calcitriol; from tissue; host or cells: intestines of juvenile pigs (protein extract); experiment: calcitriol-receptor test (competition with 3H-calcitriol); type: binding; conditions: concentration of test substance / concentration of calcitriol at 50% competition; pig intestine protein extract, 3H-calcitriol 5×10^−10 mol/l
Sequence (A3RGC1 whole entry): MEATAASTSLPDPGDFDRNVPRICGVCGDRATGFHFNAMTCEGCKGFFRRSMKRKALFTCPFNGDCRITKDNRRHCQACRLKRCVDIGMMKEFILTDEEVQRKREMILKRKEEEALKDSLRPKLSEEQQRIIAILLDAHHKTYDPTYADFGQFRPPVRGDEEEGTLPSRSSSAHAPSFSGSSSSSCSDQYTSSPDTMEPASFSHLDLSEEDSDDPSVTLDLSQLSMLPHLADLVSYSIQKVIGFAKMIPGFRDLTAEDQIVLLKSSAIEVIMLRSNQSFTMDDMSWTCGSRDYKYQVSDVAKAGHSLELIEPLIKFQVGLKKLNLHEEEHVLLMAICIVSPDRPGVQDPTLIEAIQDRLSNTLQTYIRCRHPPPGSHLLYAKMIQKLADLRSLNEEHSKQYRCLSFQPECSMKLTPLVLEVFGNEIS
Measured Metric: KF (competition factor)
Please respond with just the number, no unit label.

Illustrative cases are given below, each with its answer.
In: Any idea what KF (competition factor) was measured for `C=C1/C(=C\C=C2/CCC[C@]3(C)[C@@H]([C@H](C)/C=C/C(=O)CP(=O)(OC)OC)CC[C@@H]23)C[C@@H](O)C[C@@H]1O` ?
Out: 10

In: Tell me the measured KF (competition factor) of `C=C1/C(=C\C=C2/CCC[C@]3(C)[C@@H]([C@H](C)/C=C/C(=O)C(CC)(CC)P(=O)(OCC)OCC)CC[C@@H]23)C[C@@H](O)C[C@@H]1O` , please.
Out: 16

In: Fill in the blank: the reported KF (competition factor) of C=C1/C(=C\C=C2/CCC[C@]3(C)[C@@H]([C@H](C)/C=C/C(CP(=O)(OCC)OCC)P(=O)(OCC)OCC)CC[C@@H]23)C[C@@H](O)C[C@@H]1O (stereo partly shown) is ____.
Out: 10

In: Quick check: KF (competition factor) of `C=C1/C(=C\C=C2/CCC[C@]3(C)[C@@H]([C@H](C)/C=C/C(=O)CP(=O)(OC(C)C)OC(C)C)CC[C@@H]23)C[C@@H](O)C[C@@H]1O` ?
Out: 6

New cases:
In: Look up KF (competition factor): C=C1C(=CC=C2CCCC3(C)C2CCC3C(C)C=CC(O)P(=O)(OC(C)C)OC(C)C)CC(O)CC1O (stereo not shown) [Compound 65b]
Out: 10

In: So what's the measured KF (competition factor) for this one? C=C1C(=CC=C2CCCC3(C)C2CCC3C(C)C=CC(=O)C(C)(C)P(=O)(OCC)OCC)CC(O)CC1O (stereo not shown)
Out: 12

In: Tell me the measured KF (competition factor) of `C=C1/C(=C\C=C2/CCC[C@]3(C)[C@@H]([C@H](C)/C=C/C(=O)CP(=O)(OCC)OCC)CC[C@@H]23)C[C@@H](O)C[C@@H]1O` , please.
Out: 10
